We begin with a simple list: items and their reported EC50.
Biological target: rat PMEL17 (rat, UniProt D3ZED8 73-680)
Sequence (D3ZED8 entry or part of it): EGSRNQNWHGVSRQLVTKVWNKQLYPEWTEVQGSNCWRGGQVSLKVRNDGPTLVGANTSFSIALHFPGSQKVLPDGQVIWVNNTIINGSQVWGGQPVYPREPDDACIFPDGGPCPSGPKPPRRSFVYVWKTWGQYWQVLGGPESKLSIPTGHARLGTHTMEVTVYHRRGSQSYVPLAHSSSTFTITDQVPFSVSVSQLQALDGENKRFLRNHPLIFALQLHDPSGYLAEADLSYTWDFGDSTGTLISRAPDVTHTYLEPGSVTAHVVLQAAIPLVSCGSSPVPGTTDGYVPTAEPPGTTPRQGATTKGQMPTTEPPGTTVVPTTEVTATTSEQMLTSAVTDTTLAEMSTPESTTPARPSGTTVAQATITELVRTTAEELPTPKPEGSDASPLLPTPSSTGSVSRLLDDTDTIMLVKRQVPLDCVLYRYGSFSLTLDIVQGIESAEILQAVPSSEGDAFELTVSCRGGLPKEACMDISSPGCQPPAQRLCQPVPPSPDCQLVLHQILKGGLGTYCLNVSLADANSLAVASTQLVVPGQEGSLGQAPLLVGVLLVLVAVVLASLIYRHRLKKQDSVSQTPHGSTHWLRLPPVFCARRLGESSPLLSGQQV
Test: FACS titration of IgG on HKB11-rat PMEL17 cells, Alexa Fluor detection antibody
Write down the numeric answer in nM and omit the unit.

As a guide, the following entries are already answered.
binder="Y010355 (antibody, V domains shown, Tested as purified human IgG) VH: EVQLVESGGGLVKPGGSLRLSCAASGFTFSNYWISWVRQAPGKGLEWVGRIKSKTYGGTTDYAEPVKGRFTISRDDSKNTLYLQMNSLKTEDTAVYYCARTSRRSYAFDYWGQGTLVTVSS VL: DIQMTQSPSTLSASVGDRVTITCRASQSISSWLAWYQQKPGKAPKLLIYDASSLESGVPSRFSGSGSGTEFTLTISSLQPEDFATYYCQQITRYPVTFGQGTKVEIK" readout_kind=EC50 value_reported=0.8
binder="MOR024353 (antibody, V domains shown, Tested as purified human IgG) VH: QVQLVQSGAEVKKPGSSVKVSCKASGGTFSDYAISWVRQAPGQGLEWMGGIIPIFGDANYAQKFQGRVTITADESTSTAYMELSSLRSEDTAVYYCAREGSSYFYMAYWGQGTLVTVSS VL: SYELTQPLSVSVALGQTARITCSGDNIGSKLASWYQQKPGQAPVLVIYDDSNRPSGIPERFSGSNSGNTATLTISRAQAGDEADYYCAATAGDRWAYVFGGGTKLTVL" readout_kind=EC50 value_reported=7.5

Now for the binder whose EC50 we want.
For Y010900 (antibody, V domains shown, Tested as purified human IgG) VH: EVQLVESGGGLVKPGGSLRLSCAASGFTFSNAWMSWVRQAPGKGLEWVGRIKSKTDAGTTDYAAPVKGRFTISRDDSKNTLYLQMNSLKTEDTAVYYCARTIYPSAPSSSLDYWGQGTLVTVSS VL: DIQMTQSPSSLSASVGDRVTITCRASQGISNYLAWYQQKPGKVPKLLIYAASTLQSGVPSRFSGSGSGTDFTLTISSLQPEDVATYYCQQLIFFPLTFGQGTKVEIK , write its EC50.
9.3

Entry source: patent US20240189439A1
